Values were extracted from patent US4897391A.

molecular target: 5-lipoxygenase (Mus musculus, UniProt P48999); construct: Preincubate MC-9 cells (0.39 ml at 7.5×10^6 cells/ml) without or with test compound; endogenous in cells; host or cells: MC-9 murine mast cell clone (interleukin-3-dependent); assay: 5-Lipoxygenase Assay (MC-9 mast cells, 5-HETE and LTC4 production); format: cell-based, murine; conditions: MC9, 50 μM dose; MC-9 cells; read-out: % Inhibition 5-HETE
Sequence (P48999 whole entry): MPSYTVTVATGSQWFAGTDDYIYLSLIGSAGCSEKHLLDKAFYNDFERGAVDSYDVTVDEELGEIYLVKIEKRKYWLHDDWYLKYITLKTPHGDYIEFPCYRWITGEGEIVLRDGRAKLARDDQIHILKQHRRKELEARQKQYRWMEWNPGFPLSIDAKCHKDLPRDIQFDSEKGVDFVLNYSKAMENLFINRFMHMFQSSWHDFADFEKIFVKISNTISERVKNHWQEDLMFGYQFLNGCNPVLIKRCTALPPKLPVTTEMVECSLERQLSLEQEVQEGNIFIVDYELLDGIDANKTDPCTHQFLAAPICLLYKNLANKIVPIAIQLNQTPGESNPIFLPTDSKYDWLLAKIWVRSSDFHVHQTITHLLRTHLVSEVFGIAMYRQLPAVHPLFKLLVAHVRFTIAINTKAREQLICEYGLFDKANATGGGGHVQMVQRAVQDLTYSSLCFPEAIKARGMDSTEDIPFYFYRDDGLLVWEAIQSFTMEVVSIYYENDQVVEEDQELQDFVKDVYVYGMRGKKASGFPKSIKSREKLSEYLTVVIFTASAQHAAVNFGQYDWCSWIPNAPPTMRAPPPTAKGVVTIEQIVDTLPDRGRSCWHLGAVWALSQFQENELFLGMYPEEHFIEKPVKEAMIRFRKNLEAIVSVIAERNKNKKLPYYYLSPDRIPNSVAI
Structures can show the parent of a compound that is named as a salt.
inhibition at 50 µM for assorted molecules
A complete answer gives the number and then names the unit.

Examples from the recorded data:
- Molecule: "CC(=O)Oc1cc(OC(C)=O)c2c(-c3ccccc3)c(C)n(C)c(=O)c2c1"
  inhibition at 50 µM: "5%"
- Molecule: "CC(=O)Oc1cc(OC(C)=O)c2c3c(n(C)c(=O)c2c1)CCC3"
  inhibition at 50 µM: "56%"
- Molecule: "CC(=O)Oc1cc(OC(C)=O)c2c3c([nH]c(=O)c2c1)CCCC3"
  inhibition at 50 µM: "56%"
- Molecule: "Cc1c2n(c(=O)c3cc(OC(=O)CN)cc(OC(=O)CN)c13)CCCC2 [dihydrochloride]"
  inhibition at 50 µM: "99%"
- Molecule: "CC(=O)Oc1ccc2c(C)c3n(c(=O)c2c1)CCCC3"
  inhibition at 50 µM: "19%"
- Molecule: "O=c1[nH]c2c(c3c(O)cc(O)cc13)CCCC2"
  inhibition at 50 µM: "31%"

For 5-lipoxygenase (Mus musculus, UniProt P48999), provide inhibition at 50 µM of CC(=O)Oc1cc(OC(C)=O)c2c(OC(C)=O)c3n(c(=O)c2c1)CCCC3 please. 2%

One more molecule: O=c1[nH]c2c(c3c(O)cc(O)cc13)CCC2 31%

One more molecule: COc1cc(OC)c2c(C)c3n(c(=O)c2c1)CCCC3 8%
